# Assay comment: total protein half-life in vivo (active degradation + dilution); higher = more stable protein
# Test conditions: E. coli NCM3722 delta-clpP delta-lon delta-hslV; growth: N-lim chemostat; doubling time 6 h
Entry flag: yes if total protein half-life in vivo reaches 5 h; no if it does not.

Worked examples, 3 sequences total:
| Sequence entry | Answer label |
| --- | --- |
| MSIISTKYLLQDAQANGYAVPAFNIHNAETIQAILEVCSEMRSPVILAGTPGTFKHIALEEIYALCSAYSTTYNMPLALHLDHHESLDDIRRKVHAGVRSAMIDGSHFPFAENVKLVKSVVDFCHSQDCSVEAELGRLGGVEDDMSVDAESAFLTDPQEAKRFVELTGVDSLAVAIGTAHGLYSKTPKIDFQRLAEIREVVDVPLVLHGASDVPDEFVRRTIELGVTKVNVATELKIAFAGAVKAWFAENPQGNDPRYYMRVGMDAMKEVVRNKINVCGSANRISA [P0AB74] | yes |
| MTITDLVLILFIAALLAFAIYDQFIMPRRNGPTLLAIPLLRRGRIDSVIFVGLIVILIYNNVTNHGALITTWLLSALALMGFYIFWIRVPKIIFKQKGFFFANVWIEYSRIKAMNLSEDGVLVMQLEQRRLLIRVRNIDDLEKIYKLLVSTQ | yes |
| MSQVSTEFIPTRIAILTVSNRRGEEDDTSGHYLRDSAQEAGHHVVDKAIVKENRYAIRAQVSAWIASDDVQVVLITGGTGLTEGDQAPEALLPLFDREVEGFGEVFRMLSFEEIGTSTLQSRAVAGVANKTLIFAMPGSTKACRTAWENIIAPQLDARTRPCNFHPHLKK [P0AEZ9] | yes |

Decide: total protein half-life in vivo of MHQVVCATTNPAKIQAILQAFHEIFGEGSCHIASVAVESGVPEQPFGSEETRAGARNRVANARRLLPEADFWVAIEAGIDGDSTFSWVVIENASQRGEARSATLPLPAVILEKVREGEALGPVMSRYTGIDEIGRKEGAIGVFTAGKLTRASVYHQAVILALSPFHNAVY >= 5 h? no

Param item: MSKCSADETPVCCCMDVGTIMDNSDCTASYSRVFANRAEAEQTLAALTEKARSVESEPCKITPTFTEESDGVRLDIDFTFACEAEMLIFQLGLR [P0AD33] yes

Param item: MSEGWNIAVLGATGAVGEALLETLAERQFPVGEIYALARNESAGEQLRFGGKTITVQDAAEFDWTQAQLAFFVAGKEATAAWVEEATNSGCLVIDSSGLFALEPDVPLVVPEVNPFVLTDYRNRNVIAVPDSLTSQLLAALKPLIDQGGLSRISVTSLISASAQGKKAVDALAGQSAKLLNGIPIDEEDFFGRQLAFNMLPLLPDSEGSVREERRIVDEVRKILQDEGLMISASVVQAPVFYGHAQMVNFEALRPLAAEEARDAFVQGEDIVLSEENEFPTQVGDASGTPHLSVGCVRNDYGMPEQVQFWSVADNVRFGGALMAVKIAEKLVQEYLY yes

Param item: MRYIVALTGGIGSGKSTVANAFADLGINVIDADIIARQVVEPGAPALHAIADHFGANMIAADGTLQRRALRERIFANPEEKNWLNALLHPLIQQETQHQIQQATSPYVLWVVPLLVENSLYKKANRVLVVDVSPETQLKRTMQRDDVTREHVEQILAAQATREARLAVADDVIDNNGAPDAIASDVARLHAHYLQLASQFVSQEKP [P0A6I9] no

====

Quick reference: total protein half-life in vivo of the listed items.
# Assay comment: total protein half-life in vivo (active degradation + dilution); higher = more stable protein
# Test conditions: wild type E. coli NCM3722; growth: P-lim chemostat; doubling time 12 h
Give the value, in units of h, as a plain number.

# count of solved cases: 2
| Sequence entry | Display unit | total protein half-life in vivo |
| --- | --- | --- |
| MTVTRPRAERGAFPPGTEHYGRSLLGAPLIWFPAPAASRESGLILAGTHGDENSSVVTLSCALRTLTPSLRRHHVVLCVNPDGCQLGLRANANGVDLNRNFPAANWKEGETVYRWNSAAEERDVVLLTGDKPGSEPETQALCQLIHRIQPAWVVSFHDPLACIEDPRHSELGEWLAQAFELPLVTSVGYETPGSFGSWCADLNLHCITAEFPPISSDEASEKYLFAMANLLRWHPKDAIRPS [P0ACV6] | h | 10.7 |
| MSQFFYIHPDNPQQRLINQAVEIVRKGGVIVYPTDSGYALGCKIEDKNAMERICRIRQLPDGHNFTLMCRDLSELSTYSFVDNVAFRLMKNNTPGNYTFILKGTKEVPRRLLQEKRKTIGMRVPSNPIAQALLEALGEPMLSTSLMLPGSEFTESDPEEIKDRLEKQVDLIIHGGYLGQKPTTVIDLTDDTPVVVREGVGDVKPFL [P0AFR4] | h | 12.9 |

# total protein half-life in vivo lookup, item MKRKVLLIPLIIFLAIAAALLWQLARNAEGDDPTNLESALIGKPVPKFRLESLDNPGQFYQADVLTQGKPVLLNVWATWCPTCRAEHQYLNQLSAQGIRVVGMNYKDDRQKAISWLKELGNPYALSLFDGDGMLGLDLGVYGAPETFLIDGNGIIRYRHAGDLNPRVWEEEIKPLWEKYSKEAAQ [P0AA86] 12.5

====

Quick reference: total protein half-life in vivo of the listed items.
# Assay comment: total protein half-life in vivo (active degradation + dilution); higher = more stable protein
# Test conditions: E. coli NCM3722 delta-smpB; growth: N-lim chemostat; doubling time 6 h
Give the value, in units of h, as a plain number.

| Sequence entry | total protein half-life in vivo (h) |
| --- | --- |
| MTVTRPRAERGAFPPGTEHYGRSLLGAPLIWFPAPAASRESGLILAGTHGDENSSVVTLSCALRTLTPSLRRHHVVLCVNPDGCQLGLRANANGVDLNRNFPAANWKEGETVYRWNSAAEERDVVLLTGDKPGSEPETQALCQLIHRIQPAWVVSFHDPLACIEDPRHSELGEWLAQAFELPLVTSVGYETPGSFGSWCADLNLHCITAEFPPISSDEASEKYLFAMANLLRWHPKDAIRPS [P0ACV6] | 3.94 |
| MQENYKILVVDDDMRLRALLERYLTEQGFQVRSVANAEQMDRLLTRESFHLMVLDLMLPGEDGLSICRRLRSQSNPMPIIMVTAKGEEVDRIVGLEIGADDYIPKPFNPRELLARIRAVLRRQANELPGAPSQEEAVIAFGKFKLNLGTREMFREDEPMPLTSGEFAVLKALVSHPREPLSRDKLMNLARGREYSAMERSIDVQISRLRRMVEEDPAHPRYIQTVWGLGYVFVPDGSKA [P0AA16] | 4.73 |
| MIFLMTKDSFLLQGFWQLKDNHEMIKINSLSEIKKVGNKPFKVIIDTYHNHILDEEAIKFLEKLDAERIIVLAPYHISKLKAKAPIYFVSRKESIKNLLEITYGKHLPHKNSQLCFSHNQFKIMQLILKNKNESNITSTLNISQQTLKIQKFNIMYKLKLRRMSDIVTLGITSYF | 3.52 |
| MLKRFFITGTDTSVGKTVVSRALLQALASQGKTVAGYKPVAKGSKETPEGLRNKDALVLQSVSTIELPYEAVNPIALSEEESSVAHSCPINYTLISNGLANLTEKVDHVVVEGTGGWRSLMNDLRPLSEWVVQEQLPVLMVVGIQEGCINHALLTAQAIANDGLPLIGWVANRINPGLAHYAEIIDVLGKKLPAPLIGELPYLPRAEQRELGQYIRLAMLRSVLAVDRVTV [P0A6E9] | 2.11 |
| MKALSKLKAEEGIWMTDVPVPELGHNDLLIKIRKTAICGTDVHIYNWDEWSQKTIPVPMVVGHEYVGEVVGIGQEVKGFKIGDRVSGEGHITCGHCRNCRGGRTHLCRNTIGVGVNRPGCFAEYLVIPAFNAFKIPDNISDDLAAIFDPFGNAVHTALSFDLVGEDVLVSGAGPIGIMAAAVAKHVGARNVVITDVNEYRLELARKMGITRAVNVAKENLNDVMAELGMTEGFDVGLEMSGAPPAFRTMLDTMNHGGRIAMLGIPPSDMSIDWTKVIFKGLFIKGIYGREMFETWYKMAALIQSGLDLSPIITHRFSIDDFQKGFDAMRSGQSGKVILSWD | 4.44 |

Now consider a different sequence.
# total protein half-life in vivo lookup, item MIDDDGYRPNVGIVICNRQGQVMWARRFGQHSWQFPQGGINPGESAEQAMYRELFEEVGLSRKDVRILASTRNWLRYKLPKRLVRWDTKPVCIGQKQKWFLLQLVSGDAEINMQTSSTPEFDGWRWVSYWYPVRQVVSFKRDVYRRVMKEFASVVMSLQENTPKPQNASAYRRKRG [P0A776] 5.02

====

# Assay comment: total protein half-life in vivo (active degradation + dilution); higher = more stable protein
# Test conditions: wild type E. coli NCM3722; growth: C-lim chemostat; doubling time 6 h
Quick reference: total protein half-life in vivo of the listed items.
Give the value, in units of h, as a plain number.

| Sequence entry | total protein half-life in vivo (h) |
| --- | --- |
| MKKIPLGTTDITLSRMGLGTWAIGGGPAWNGDLDRQICIDTILEAHRCGINLIDTAPGYNFGNSEVIVGQALKKLPREQVVVETKCGIVWERKGSLFNKVGDRQLYKNLSPESIREEVAASLQRLGIDYIDIYMTHWQSVPPFFTPIAETVAVLNELKSEGKIRAIGAANVDADHIREYLQYGELDIIQAKYSILDRAMENELLPLCRDNGIVVQVYSPLEQGLLTGTITRDYVPGGARANKVWFQRENMLKVIDMLEQWQPLCARYQCTIPTLALAWILKQSDLISILSGATAPEQVRENVAALNINLSDADATLMREMAEALER | 5.64 |
| MPLLDSFTVDHTRMEAPAVRVAKTMNTPHGDAITVFDLRFCVPNKEVMPERGIHTLEHLFAGFMRNHLNGNGVEIIDISPMGCRTGFYMSLIGTPDEQRVADAWKAAMEDVLKVQDQNQIPELNVYQCGTYQMHSLQEAQDIARSILERDVRINSNEELALPKEKLQELHI | 4.05 |
| MSKVCIIAWVYGRVQGVGFRYTTQYEAKRLGLTGYAKNLDDGSVEVVACGEEGQVEKLMQWLKSGGPRSARVERVLSEPHHPSGELTDFRIR [P0AB65] | 5.96 |

# total protein half-life in vivo lookup, item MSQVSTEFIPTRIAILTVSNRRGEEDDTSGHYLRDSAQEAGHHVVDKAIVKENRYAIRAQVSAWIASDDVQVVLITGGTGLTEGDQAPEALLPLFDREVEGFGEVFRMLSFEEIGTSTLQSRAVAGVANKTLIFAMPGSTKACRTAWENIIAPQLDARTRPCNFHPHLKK [P0AEZ9] 5.99

Param item: MSKIRVLSVDDSALMRQIMTEIINSHSDMEMVATAPDPLVARDLIKKFNPDVLTLDVEMPRMDGLDFLEKLMRLRPMPVVMVSSLTGKGSEVTLRALELGAIDFVTKPQLGIREGMLAYNEMIAEKVRTAAKASLAAHKPLSAPTTLKAGPLLSSEKLIAIGASTGGTEAIRHVLQPLPLSSPALLITQHMPPGFTRSFADRLNKLCQIGVKEAEDGERVLPGHAYIAPGDRHMELSRSGANYQIKIHDGPAVNRHRPSVDVLFHSVAKQAGRNAVGVILTGMGNDGAAGMLAMRQAGAWTLAQNEASCVVFGMPREAINMGGVCEVVDLSQVSQQMLAKISAGQAIRI 3.21

Param item: MDNRGEFLNNVAQALGRPLRLEPQAEDAPLNNYANERLTQLNQQQRCDAFIQFASDVMLTRCELTSEAKAAEAAIRLCKELGDQSVVISGDTRLEELGISERLQQECNAVVWDPAKGAENISQAEQAKVGVVYAEYGLTESGGVVLFSAAERGRSLSLLPEYSLFILRKSTILPRVAQLAEKLHQKAQAGERMPSCINIISGPSSTADIELIKVVGVHGPVKAVYLIIEDC 3.75

Param item: MSKKLIALCACPMGLAHTFMAAQALEEAAVEAGYEVKIETQGADGIQNRLTAQDIAEATIIIHSVAVTPEDNERFESRDVYEITLQDAIKNAAGIIKEIEEMIASEQQ 4.02

Param item: MSGLPLISRRRLLTAMALSPLLWQMNTAHAAAIDPNRIVALEWLPVELLLALGIVPYGVADTINYRLWVSEPPLPDSVIDVGLRTEPNLELLTEMKPSFMVWSAGYGPSPEMLARIAPGRGFNFSDGKQPLAMARKSLTEMADLLNLQSAAETHLAQYEDFIRSMKPRFVKRGARPLLLTTLIDPRHMLVFGPNSLFQEILDEYGIPNAWQGETNFWGSTAVSIDRLAAYKDVDVLCFDHDNSKDMDALMATPLWQAMPFVRAGRFQRVPAVWFYGATLSAMHFVRVLDNAIGGKA 5.86

Param item: MSLFHLIAPSGYCIKQHAALRGIQRLTDAGHQVNNVEVIARRCERFAGTETERLEDLNSLARLTTPNTIVLAVRGGYGASRLLADIDWQALVARQQHDPLLICGHSDFTAIQCGLLAHGNVITFSGPMLVANFGADELNAFTEHHFWLALRNETFTIEWQGEGPTCRAEGTLWGGNLAMLISLIGTPWMPKIENGILVLEDINEHPFRVERMLLQLYHAGILPRQKAIILGSFSGSTPNDYDAGYNLESVYAFLRSRLSIPLITGLDFGHEQRTVTLPLGAHAILNNTREGTQLTISGHPVLKM 5

Param item: MKNKLPPFIEIYRALIATPSISATEEALDQSNADLITLLADWFKDLGFNVEVQPVPGTRNKFNMLASIGQGAGGLLLAGHTDTVPFDDGRWTRDPFTLTEHDGKLYGLGTADMKGFFAFILDALRDVDVTKLKKPLYILATADEETSMAGARYFAETTALRPDCAIIGEPTSLQPVRAHKGHISNAIRIQGQSGHSSDPARGVNAIELMHDAIGHILQLRDNLKERYHYEAFTVPYPTLNLGHIHGGDASNRICACCELHMDIRPLPGMTLNELNGLLNDALAPVSERWPGRLTVDELHPPIPGYECPPNHQLVEVVEKLLGAKTEVVNYCTEAPFIQTLCPTLVLGPGSINQAHQPDEYLETRFIKPTRELITQVIHHFCWH 5.46

Param item: MKCKRLNEVIELLQPAWQKEPDLNLLQFLQKLAKESGFDGELADLTDDILIYHLKMRDSAKDAVIPGLQKDYEEDFKTALLRARGVIKE [P0ADP9] 4.76

Param item: MPAENIVEVHHLKKSVGQGEHELSILTGVELVVKRGETIALVGESGSGKSTLLAILAGLDDGSSGEVSLVGQPLHNMDEEARAKLRAKHVGFVFQSFMLIPTLNALENVELPALLRGESSAESRNGAKALLEQLGLGKRLDHLPAQLSGGEQQRVALARAFNGRPDVLFADEPTGNLDRQTGDKIADLLFSLNREHGTTLIMVTHDLQLAARCDRCLRLVNGQLQEEA [P0A9T8] 5.51

Sourced from the supplement of paper PMC11246515
